biological target: monkey IGF-1R on COS-7 cells (monkey (African green monkey)); assay: cell-based or functional assay
readout.name: ΔMFI (monkey IGF-1R internalization) (MFI)
Lab book: enter the figure in MFI, no units written.

binder: m212A11 (murine 212A11, hybridoma CNCM I-4773) (antibody, V domains shown) VH: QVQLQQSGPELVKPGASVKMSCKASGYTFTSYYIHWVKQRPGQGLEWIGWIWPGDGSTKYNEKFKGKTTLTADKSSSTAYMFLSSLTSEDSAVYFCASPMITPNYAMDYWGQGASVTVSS VL: DIQMTQTTSSLSASLGDRVTISCRASQDINKYLNWYQQQPDGTVKLLIYYTSRLHSGVPSRFSGRGSGTDYSLTISNLEQEDIATYFCQQGSTLPYTFGGGTKLEIK
readout.unit: MFI
reading: 83

ΔMFI (monkey IGF-1R internalization) reported for this binder m219D6 (murine 219D6, hybridoma CNCM I-4736) (antibody, V domains shown) VH: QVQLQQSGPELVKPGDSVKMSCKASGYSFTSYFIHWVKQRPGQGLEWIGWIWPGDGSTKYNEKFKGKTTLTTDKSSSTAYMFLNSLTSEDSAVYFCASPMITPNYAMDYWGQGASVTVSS VL: DIQMTQTTSSLSASLGDRVTISCRASQDISKYLNWYQQQPDGTVKLLIYYTSRLHSGVPSRFSGRGSGTDYSLTISNLEQEDIATYFCQQGSTLPYTFGGGTKLEIK : 80

FYI, the data here is from patent US20190202901A1.
